Measured values drawn from paper PMC3493109 for this set.

target: glyoxylate carboligase (GCL) (Escherichia coli, UniProt P0AEP7, I393A); assay: CD titration at […] nm, Hill fit; type: binding
Sequence (P0AEP7 2-593 I393A limits assumed): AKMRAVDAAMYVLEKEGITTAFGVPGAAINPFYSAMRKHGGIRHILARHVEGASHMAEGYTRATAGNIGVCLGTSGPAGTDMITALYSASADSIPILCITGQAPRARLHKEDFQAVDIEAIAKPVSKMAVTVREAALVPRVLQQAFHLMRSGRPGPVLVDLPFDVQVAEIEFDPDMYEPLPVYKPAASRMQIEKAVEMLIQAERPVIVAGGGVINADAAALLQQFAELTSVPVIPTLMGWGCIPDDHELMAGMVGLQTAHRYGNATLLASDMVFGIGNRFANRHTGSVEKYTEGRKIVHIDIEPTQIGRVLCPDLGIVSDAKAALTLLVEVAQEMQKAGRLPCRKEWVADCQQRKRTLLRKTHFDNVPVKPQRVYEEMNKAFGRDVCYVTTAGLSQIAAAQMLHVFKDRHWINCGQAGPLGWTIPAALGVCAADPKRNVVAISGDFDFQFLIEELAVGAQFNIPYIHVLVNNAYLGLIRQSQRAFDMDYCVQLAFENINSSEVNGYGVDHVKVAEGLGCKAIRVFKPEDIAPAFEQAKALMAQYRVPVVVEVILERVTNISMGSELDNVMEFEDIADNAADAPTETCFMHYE
assay-endpoint: pKd
Lab note: report pKd as minus log10 of the concentration in molar units, number only.

Problem: // query pKd value for entry CC(=O)C(=O)O [pyruvate]
Result: 5.09

* * *

biological target: glyoxylate carboligase (GCL) (Escherichia coli, UniProt P0AEP7, I393A/V51D); assay: CD titration at […] nm; assay type: binding
Sequence (P0AEP7 2-593 V51D/I393A limits assumed): as the sequence (P0AEP7 2-593 I393A limits assumed) above, with V50D counted along it
assay-endpoint: Kd (µM)
Write the number in µM without appending the unit.

Problem: // query Kd value for entry COP(=O)(O)C(C)=O
Result: 110

* * *

target: glyoxylate carboligase (GCL) (Escherichia coli, UniProt P0AEP7, I393A); test: CD titration at […] nm; assay type: binding
assay-endpoint: pKd
Lab note: report pKd as minus log10 of the concentration in molar units, number only.

Problem: // query pKd value for entry COP(=O)(O)C(C)=O
Result: 2.85
